details: in methanol, 318.15 K
readout: solubility (mole fraction)

Tell me the measured solubility (mole fraction) of CC(C)(c1cc(Br)c(O)c(Br)c1)c1cc(Br)c(O)c(Br)c1 , please.
0.0564

----------
conditions: in n-butanol, 308.15 K
readout: solubility (mole fraction)
Kindly provide the number alone.

Tell me the measured solubility (mole fraction) of CC(C)(c1cc(Br)c(O)c(Br)c1)c1cc(Br)c(O)c(Br)c1 , please.
0.0542

----------
conditions: in ethanol, 303.15 K
readout: solubility (mole fraction)
Kindly provide the number alone.

Tell me the measured solubility (mole fraction) of CC(C)(c1cc(Br)c(O)c(Br)c1)c1cc(Br)c(O)c(Br)c1 , please.
0.0516

----------
conditions: in sec-butanol, 303.15 K
readout: solubility (mole fraction)
Kindly provide the number alone.

Tell me the measured solubility (mole fraction) of CC(C)(c1cc(Br)c(O)c(Br)c1)c1cc(Br)c(O)c(Br)c1 , please.
0.0288

----------
settings: in n-pentanol, 308.15 K
readout: solubility (mole fraction)
Kindly provide the number alone.

Tell me the measured solubility (mole fraction) of CC(C)(c1cc(Br)c(O)c(Br)c1)c1cc(Br)c(O)c(Br)c1 , please.
0.0596

----------
details: in n-propanol, 323.15 K
readout: solubility (mole fraction)
Kindly provide the number alone.

Tell me the measured solubility (mole fraction) of CC(C)(c1cc(Br)c(O)c(Br)c1)c1cc(Br)c(O)c(Br)c1 , please.
0.0553

----------
settings: in ethyl acetate, 313.15 K
readout: solubility (mole fraction)
Kindly provide the number alone.

Tell me the measured solubility (mole fraction) of CC(C)(c1cc(Br)c(O)c(Br)c1)c1cc(Br)c(O)c(Br)c1 , please.
0.144

----------
conditions: in n-butyl acetate, 323.15 K
readout: solubility (mole fraction)
Kindly provide the number alone.

Tell me the measured solubility (mole fraction) of CC(C)(c1cc(Br)c(O)c(Br)c1)c1cc(Br)c(O)c(Br)c1 , please.
0.151

----------
details: in n-butanol, 333.15 K
readout: solubility (mole fraction)
Kindly provide the number alone.

Tell me the measured solubility (mole fraction) of CC(C)(c1cc(Br)c(O)c(Br)c1)c1cc(Br)c(O)c(Br)c1 , please.
0.0717

----------
conditions: in sec-butanol, 333.15 K
readout: solubility (mole fraction)

Tell me the measured solubility (mole fraction) of CC(C)(c1cc(Br)c(O)c(Br)c1)c1cc(Br)c(O)c(Br)c1 , please.
0.056

----------
conditions: in methanol, 313.15 K
readout: solubility (mole fraction)

Tell me the measured solubility (mole fraction) of CC(C)(c1cc(Br)c(O)c(Br)c1)c1cc(Br)c(O)c(Br)c1 , please.
0.0546

----------
conditions: in methanol, 323.15 K
readout: solubility (mole fraction)
Kindly provide the number alone.

Tell me the measured solubility (mole fraction) of CC(C)(c1cc(Br)c(O)c(Br)c1)c1cc(Br)c(O)c(Br)c1 , please.
0.0585

----------
settings: in sec-butanol, 308.15 K
readout: solubility (mole fraction)
Kindly provide the number alone.

Tell me the measured solubility (mole fraction) of CC(C)(c1cc(Br)c(O)c(Br)c1)c1cc(Br)c(O)c(Br)c1 , please.
0.0321

----------
conditions: in n-propanol, 328.15 K
readout: solubility (mole fraction)

Tell me the measured solubility (mole fraction) of CC(C)(c1cc(Br)c(O)c(Br)c1)c1cc(Br)c(O)c(Br)c1 , please.
0.059

----------
conditions: in isopropanol, 313.15 K
readout: solubility (mole fraction)
Kindly provide the number alone.

Tell me the measured solubility (mole fraction) of CC(C)(c1cc(Br)c(O)c(Br)c1)c1cc(Br)c(O)c(Br)c1 , please.
0.031

----------
details: in n-propanol, 308.15 K
readout: solubility (mole fraction)
Kindly provide the number alone.

Tell me the measured solubility (mole fraction) of CC(C)(c1cc(Br)c(O)c(Br)c1)c1cc(Br)c(O)c(Br)c1 , please.
0.0476

----------
settings: in ethanol, 298.15 K
readout: solubility (mole fraction)

Tell me the measured solubility (mole fraction) of CC(C)(c1cc(Br)c(O)c(Br)c1)c1cc(Br)c(O)c(Br)c1 , please.
0.0511

----------
conditions: in isopropanol, 323.15 K
readout: solubility (mole fraction)
Kindly provide the number alone.

Tell me the measured solubility (mole fraction) of CC(C)(c1cc(Br)c(O)c(Br)c1)c1cc(Br)c(O)c(Br)c1 , please.
0.0381

----------
conditions: in n-butyl acetate, 303.15 K
readout: solubility (mole fraction)
Kindly provide the number alone.

Tell me the measured solubility (mole fraction) of CC(C)(c1cc(Br)c(O)c(Br)c1)c1cc(Br)c(O)c(Br)c1 , please.
0.142

----------
settings: in methanol, 298.15 K
readout: solubility (mole fraction)

Tell me the measured solubility (mole fraction) of CC(C)(c1cc(Br)c(O)c(Br)c1)c1cc(Br)c(O)c(Br)c1 , please.
0.0499

----------
settings: in n-pentanol, 298.15 K
readout: solubility (mole fraction)
Kindly provide the number alone.

Tell me the measured solubility (mole fraction) of CC(C)(c1cc(Br)c(O)c(Br)c1)c1cc(Br)c(O)c(Br)c1 , please.
0.0567

----------
settings: in sec-butanol, 323.15 K
readout: solubility (mole fraction)

Tell me the measured solubility (mole fraction) of CC(C)(c1cc(Br)c(O)c(Br)c1)c1cc(Br)c(O)c(Br)c1 , please.
0.045

----------
settings: in n-pentanol, 333.15 K
readout: solubility (mole fraction)
Kindly provide the number alone.

Tell me the measured solubility (mole fraction) of CC(C)(c1cc(Br)c(O)c(Br)c1)c1cc(Br)c(O)c(Br)c1 , please.
0.0752

----------
settings: in n-propanol, 303.15 K
readout: solubility (mole fraction)
Kindly provide the number alone.

Tell me the measured solubility (mole fraction) of CC(C)(c1cc(Br)c(O)c(Br)c1)c1cc(Br)c(O)c(Br)c1 , please.
0.046

----------
conditions: in ethyl acetate, 328.15 K
readout: solubility (mole fraction)

Tell me the measured solubility (mole fraction) of CC(C)(c1cc(Br)c(O)c(Br)c1)c1cc(Br)c(O)c(Br)c1 , please.
0.157

----------
conditions: in sec-butanol, 298.15 K
readout: solubility (mole fraction)

Tell me the measured solubility (mole fraction) of CC(C)(c1cc(Br)c(O)c(Br)c1)c1cc(Br)c(O)c(Br)c1 , please.
0.0262

----------
settings: in sec-butanol, 318.15 K
readout: solubility (mole fraction)
Kindly provide the number alone.

Tell me the measured solubility (mole fraction) of CC(C)(c1cc(Br)c(O)c(Br)c1)c1cc(Br)c(O)c(Br)c1 , please.
0.0399

----------
conditions: in isopropanol, 308.15 K
readout: solubility (mole fraction)

Tell me the measured solubility (mole fraction) of CC(C)(c1cc(Br)c(O)c(Br)c1)c1cc(Br)c(O)c(Br)c1 , please.
0.0284

----------
conditions: in n-butyl acetate, 333.15 K
readout: solubility (mole fraction)
Kindly provide the number alone.

Tell me the measured solubility (mole fraction) of CC(C)(c1cc(Br)c(O)c(Br)c1)c1cc(Br)c(O)c(Br)c1 , please.
0.159

----------
details: in n-butanol, 298.15 K
readout: solubility (mole fraction)
Kindly provide the number alone.

Tell me the measured solubility (mole fraction) of CC(C)(c1cc(Br)c(O)c(Br)c1)c1cc(Br)c(O)c(Br)c1 , please.
0.0511

----------
conditions: in n-butanol, 303.15 K
readout: solubility (mole fraction)

Tell me the measured solubility (mole fraction) of CC(C)(c1cc(Br)c(O)c(Br)c1)c1cc(Br)c(O)c(Br)c1 , please.
0.0522

----------
settings: in isopropanol, 298.15 K
readout: solubility (mole fraction)
Kindly provide the number alone.

Tell me the measured solubility (mole fraction) of CC(C)(c1cc(Br)c(O)c(Br)c1)c1cc(Br)c(O)c(Br)c1 , please.
0.0242

----------
settings: in n-propanol, 333.15 K
readout: solubility (mole fraction)
Kindly provide the number alone.

Tell me the measured solubility (mole fraction) of CC(C)(c1cc(Br)c(O)c(Br)c1)c1cc(Br)c(O)c(Br)c1 , please.
0.063

----------
details: in isopropanol, 318.15 K
readout: solubility (mole fraction)
Kindly provide the number alone.

Tell me the measured solubility (mole fraction) of CC(C)(c1cc(Br)c(O)c(Br)c1)c1cc(Br)c(O)c(Br)c1 , please.
0.0343

----------
settings: in n-butyl acetate, 318.15 K
readout: solubility (mole fraction)

Tell me the measured solubility (mole fraction) of CC(C)(c1cc(Br)c(O)c(Br)c1)c1cc(Br)c(O)c(Br)c1 , please.
0.148

----------
settings: in n-butanol, 313.15 K
readout: solubility (mole fraction)
Kindly provide the number alone.

Tell me the measured solubility (mole fraction) of CC(C)(c1cc(Br)c(O)c(Br)c1)c1cc(Br)c(O)c(Br)c1 , please.
0.0573

----------
conditions: in isopropanol, 303.15 K
readout: solubility (mole fraction)
Kindly provide the number alone.

Tell me the measured solubility (mole fraction) of CC(C)(c1cc(Br)c(O)c(Br)c1)c1cc(Br)c(O)c(Br)c1 , please.
0.0259

// provenance: BigSolDB 2.1
